// values below are reported MIC
Tested on: Pseudomonas aeruginosa
Test: Antibacterial activity against Pseudomonas aeruginosa ATCC 10145 assessed as growth inhibition after 24 hrs by dilution tube method
Assay type: functional
Conditions: ATCC 10145, 24 h
MEASURED_QUANTITY: MIC (µg/mL)

- Cc1cc(OCCCCCC[N+](C)(C)Cc2ccc(Br)o2)c(C(C)C)cc1Cl.Cc1ccc(S(=O)(=O)[O-])cc1: 10
- Cc1cc(OCCCCCCC[N+](C)(C)Cc2ccc([N+](=O)[O-])o2)c(C(C)C)cc1Cl.[Br-]: 2
- C[N+](C)(CCCOc1c(Br)cc(Br)cc1Br)Cc1ccc([N+](=O)[O-])o1.[Br-]: 25
- C[N+](C)(CCCCCCCCCCOc1c(Br)cc(Br)cc1Br)Cc1ccc([N+](=O)[O-])o1.[Br-]: 3
